system: Streptococcus Group A; test: in vitro antibacterial activity, agar dilution; format: cell-based; settings: strain C203; read-out: Minimum Inhibitory Concentration
Experimental endpoint: MIC (µg/mL)
Give bare numbers, in µg/mL.

// below: answered compounds
> print(dat)
                                   compound  readout.unit  experimental.value
1  O=CO[C@@H](C(=O)N[C@@H]1C(=O)N2C(C(=O)O)=C(CSc3nnnn3Cc3nnn[nH]3)CS[C@H]12)c1ccccc1 [C]         µg/mL                 0.5
2  CCN1CCN(C(=O)N[C@@H](C(=O)N[C@@H]2C(=O)N3C(C(=O)O)=C(CSc4nnnn4Cc4nnn[nH]4)CS[C@H]23)c2ccc(O)cc2)C(=O)C1=O [D]         µg/mL                 0.5

Summary line: CO[C@@]1(NC(=O)Cc2cccs2)C(=O)N2C(C(=O)O)=C(CSc3nnnn3Cc3nnn[nH]3)CS[C@@H]21 [A] , Streptococcus Group A, reported MIC = 0.5

###

test system: Enterobacter cloacae; assay: in vitro antibacterial activity, agar dilution; format: cell-based; settings: strain 265A, read-out: Minimum Inhibitory Concentration
I'd be grateful if you could share measured MIC for these entries.
Numbers only, in µg/mL.

Example results:
> print(dat)
                                 cpd.smiles  experimental.endpoint  experimental.value
1  CCN1CCN(C(=O)N[C@@H](C(=O)N[C@@H]2C(=O)N3C(C(=O)O)=C(CSc4nnnn4Cc4nnn[nH]4)CS[C@H]23)c2ccc(O)cc2)C(=O)C1=O                    MIC                 128
2  CO/N=C(\C(=O)N[C@@H]1C(=O)N2C(C(=O)O)=C(CSc3nnnn3Cc3nnn[nH]3)CS[C@H]12)c1csc(N)n1                    MIC                  64
3  CO/N=C(\C(=O)N[C@@H]1C(=O)N2C(C(=O)O)=C(CSc3nnnn3Cc3nnnn3C)CS[C@H]12)c1csc(N)n1                    MIC                  32

Now consider a different molecule.
Please fill in: MIC reported for CO/N=C(\C(=O)N[C@@H]1C(=O)N2C(C(=O)O)=C(CSc3nnn(Cc4nnn[nH]4)n3)CS[C@H]12)c1csc(N)n1 = 64

###

tested on: Proteus inconstans; experiment: in vitro antibacterial activity, agar dilution; format: cell-based; conditions: Providencia alcalifaciens; strain PR33; read-out: Minimum Inhibitory Concentration
Experimental endpoint: MIC
Hi, when you answer, please include the unit after the number. Thanks!

Quick request: MIC for each listed item, please.
1. Cn1nnnc1Cn1nnnc1SCC1=C(C(=O)O)N2C(=O)[C@@H](NC(=O)Cc3cccs3)[C@H]2SC1
2. CO[C@@]1(NC(=O)Cc2cccs2)C(=O)N2C(C(=O)O)=C(CSc3nnnn3Cc3nnn[nH]3)CS[C@@H]21
3. O=CO[C@@H](C(=O)N[C@@H]1C(=O)N2C(C(=O)O)=C(CSc3nnnn3Cc3nnn[nH]3)CS[C@H]12)c1ccccc1
4. CO/N=C(\C(=O)N[C@@H]1C(=O)N2C(C(=O)O)=C(CSc3nnn(Cc4nnn[nH]4)n3)CS[C@H]12)c1csc(N)n1
5. CO/N=C(\C(=O)N[C@@H]1C(=O)N2C(C(=O)O)=C(CSc3nnnn3Cc3nnnn3C)CS[C@H]12)c1csc(N)n1
6. CCN1CCN(C(=O)N[C@@H](C(=O)N[C@@H]2C(=O)N3C(C(=O)O)=C(CSc4nnnn4Cc4nnn[nH]4)CS[C@H]23)c2ccc(O)cc2)C(=O)C1=O

Result:
64 µg/mL
4 µg/mL
2 µg/mL
1 µg/mL
0.5 µg/mL
2 µg/mL
